Taken from ChEMBL document CHEMBL1828564.

- Tested on: MDA-MB-231
- assay text: Antiproliferative activity against human MDA-MB-231 cells after 48 hrs by MTT assay
- Type: functional, cell-based
- run conditions: MDA-MB-231, 48 h
Where a SMILES comes first, the peptide text is derived from it. [ ]: non-standard residue; d: D form. The star is where a group is joined. Tic = O=C(O)[C@@H]1Cc2ccccc2CN1; Phg = N[C@H](C(=O)O)c1ccccc1; NHOH = ON*
property measured: IC50 (µM)

O=C(N[C@H](C(=O)NO)c1ccccc1)[C@@H]1Cc2ccccc2CN1 (H-[Tic]-[Phg]-{NHOH})    591
CC(C)C[C@H](NC(=O)[C@@H](O)[C@H](N)Cc1ccccc1)C(=O)O [UBENIMEX]    753

* * *

- study system: Aminopeptidase N (Sus scrofa, UniProt P15145)
- assay text: Inhibition of pig kidney microsome aminopeptidase N using L-Leu-p-nitroanilide substrate
- run conditions: read-out: IC50
Where a SMILES comes first, the peptide text is derived from it. [ ]: non-standard residue; d: D form. The star is where a group is joined. Tic = O=C(O)[C@@H]1Cc2ccccc2CN1; NHOH = ON*
property measured: IC50 (µM)

O=C(N[C@@H](CO)C(=O)NO)[C@@H]1Cc2ccccc2CN1 (H-[Tic]-Ser-{NHOH})    40.2

P = CC(C)C[C@H](NC(=O)[C@@H]1Cc2ccccc2CN1)C(=O)N[C@@H](Cc1ccccc1)C(=O)NO (H-[Tic]-Leu-Phe-{NHOH})
Q = C[C@H](NC(=O)[C@@H]1Cc2ccccc2CN1)C(=O)NO (H-[Tic]-Ala-{NHOH})
R = CSCC[C@H](NC(=O)[C@@H]1Cc2ccccc2CN1)C(=O)NO (H-[Tic]-Met-{NHOH})
Ranking field: IC50; order: falling. A complete answer lists every label in the requested sequence.
P, Q, R

* * *

- study system: Aminopeptidase N (Homo sapiens, UniProt P15144)
- Sequence (P15144 whole entry): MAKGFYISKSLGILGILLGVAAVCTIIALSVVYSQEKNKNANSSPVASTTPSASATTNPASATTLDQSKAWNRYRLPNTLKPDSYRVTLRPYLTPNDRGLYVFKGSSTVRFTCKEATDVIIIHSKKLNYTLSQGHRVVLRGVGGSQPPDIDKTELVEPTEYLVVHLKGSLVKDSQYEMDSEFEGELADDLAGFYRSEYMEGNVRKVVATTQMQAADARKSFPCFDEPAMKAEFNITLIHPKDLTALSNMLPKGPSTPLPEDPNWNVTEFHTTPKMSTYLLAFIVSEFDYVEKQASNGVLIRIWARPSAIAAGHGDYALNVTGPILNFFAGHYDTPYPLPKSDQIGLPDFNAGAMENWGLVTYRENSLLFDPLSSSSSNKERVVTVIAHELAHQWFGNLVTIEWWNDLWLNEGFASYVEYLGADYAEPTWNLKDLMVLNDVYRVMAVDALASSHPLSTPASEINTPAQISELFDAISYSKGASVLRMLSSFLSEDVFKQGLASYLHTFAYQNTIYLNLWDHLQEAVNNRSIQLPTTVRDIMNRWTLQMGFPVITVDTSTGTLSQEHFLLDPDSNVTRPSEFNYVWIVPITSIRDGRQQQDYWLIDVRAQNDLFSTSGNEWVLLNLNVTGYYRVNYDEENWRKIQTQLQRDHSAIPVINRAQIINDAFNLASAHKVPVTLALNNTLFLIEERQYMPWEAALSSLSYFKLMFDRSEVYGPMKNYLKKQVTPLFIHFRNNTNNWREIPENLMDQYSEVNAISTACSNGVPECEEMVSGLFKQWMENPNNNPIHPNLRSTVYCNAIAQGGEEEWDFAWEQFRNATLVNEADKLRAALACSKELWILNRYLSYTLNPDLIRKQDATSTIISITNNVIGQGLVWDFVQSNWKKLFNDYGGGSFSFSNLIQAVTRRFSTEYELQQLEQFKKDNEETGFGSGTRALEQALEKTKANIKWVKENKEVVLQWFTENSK
- assay text: Inhibition of aminopeptidase N in human ES2 cells assessed as L-Leu-p-nitroanilide hydrolysis
Where a SMILES comes first, the peptide text is derived from it. [ ]: non-standard residue; d: D form. The star is where a group is joined. Tic = O=C(O)[C@@H]1Cc2ccccc2CN1; Phg = N[C@H](C(=O)O)c1ccccc1; NHOH = ON*
property measured: pIC50
In simple prose, pIC50 is minus the logarithm base ten of a concentration in moles per litre.

Reported pIC50 for O=C(N[C@H](C(=O)NO)c1ccccc1)[C@@H]1Cc2ccccc2CN1 (H-[Tic]-[Phg]-{NHOH}) : what is it?
4.49

* * *

- study system: Aminopeptidase N (Sus scrofa, UniProt P15145)
- assay text: Inhibition of pig kidney microsome aminopeptidase N using L-Leu-p-nitroanilide substrate
- run conditions: read-out: IC50
pIC50: −log10 of the molar value. Where a SMILES comes first, the peptide text is derived from it. [ ]: non-standard residue; d: D form. The star is where a group is joined. Tic = O=C(O)[C@@H]1Cc2ccccc2CN1; Phg = N[C@H](C(=O)O)c1ccccc1; NHOH = ON*
property measured: pIC50

O=C(N[C@H](C(=O)NO)c1ccccc1)[C@@H]1Cc2ccccc2CN1 (H-[Tic]-[Phg]-{NHOH})    5.20
CC(C)C[C@H](NC(=O)[C@H](CC(C)C)NC(=O)[C@@H]1Cc2ccccc2CN1)C(=O)NO.Cl (H-[Tic]-Leu-Leu-{NHOH})    3.32
Cl.O=C(N[C@@H](Cc1ccccc1)C(=O)N[C@@H](Cc1ccccc1)C(=O)NO)[C@@H]1Cc2ccccc2CN1 (H-[Tic]-Phe-Phe-{NHOH})    3.36

I = CC(C)C[C@H](NC(=O)[C@H](Cc1ccccc1)NC(=O)[C@@H]1Cc2ccccc2CN1)C(=O)NO.Cl (H-[Tic]-Phe-Leu-{NHOH})
II = O=C(NO)[C@@H]1CCCN1C(=O)[C@@H]1Cc2ccccc2CN1 (H-[Tic]-Pro-{NHOH})
III = C[C@@H](O)[C@H](NC(=O)[C@@H]1Cc2ccccc2CN1)C(=O)NO (H-[Tic]-Thr-{NHOH})
IV = O=C(CNC(=O)[C@@H]1Cc2ccccc2CN1)NO (H-[Tic]-Gly-{NHOH})
Rank order required: pIC50, descending. Labels, requested order.
IV, III, II, I
(IV: 4.66, III: 4.33, II: 3.98, I: 3.26)

* * *

- study system: 72 kDa type IV collagenase (Homo sapiens, UniProt P08253)
- Sequence (P08253 whole entry): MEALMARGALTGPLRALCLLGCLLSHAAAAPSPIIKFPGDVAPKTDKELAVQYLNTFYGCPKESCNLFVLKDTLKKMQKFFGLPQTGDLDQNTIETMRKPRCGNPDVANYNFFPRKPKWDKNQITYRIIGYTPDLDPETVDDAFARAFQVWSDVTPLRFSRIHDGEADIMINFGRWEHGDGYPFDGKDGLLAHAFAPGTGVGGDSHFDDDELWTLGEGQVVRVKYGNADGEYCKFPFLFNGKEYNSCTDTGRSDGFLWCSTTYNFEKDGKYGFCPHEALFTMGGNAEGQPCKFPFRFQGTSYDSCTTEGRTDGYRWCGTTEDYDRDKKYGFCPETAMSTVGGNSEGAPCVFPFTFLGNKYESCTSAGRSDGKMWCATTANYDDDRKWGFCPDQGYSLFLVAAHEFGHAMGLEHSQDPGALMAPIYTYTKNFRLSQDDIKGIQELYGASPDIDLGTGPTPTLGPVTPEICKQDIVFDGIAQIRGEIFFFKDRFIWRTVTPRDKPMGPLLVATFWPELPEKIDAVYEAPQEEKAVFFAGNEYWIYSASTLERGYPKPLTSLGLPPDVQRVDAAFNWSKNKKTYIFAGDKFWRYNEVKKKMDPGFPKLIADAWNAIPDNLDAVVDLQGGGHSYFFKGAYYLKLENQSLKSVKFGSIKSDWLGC
- assay text: Inhibition of MMP2 after 30 mins
- run conditions: read-out: IC50
pIC50: −log10 of the molar value. Where a SMILES comes first, the peptide text is derived from it. [ ]: non-standard residue; d: D form. The star is where a group is joined. Hyp = O=C(O)[C@@H]1C[C@@H](O)CN1; Tic = O=C(O)[C@@H]1Cc2ccccc2CN1; Phg = N[C@H](C(=O)O)c1ccccc1; NHOH = ON*
property measured: pIC50

See these solved cases before continuing.
O=C(NO)[C@@H]1CCCN1C(=O)[C@@H]1Cc2ccccc2CN1 (H-[Tic]-Pro-{NHOH})    3.80
C[C@H](NC(=O)[C@@H]1Cc2ccccc2CN1)C(=O)NO (H-[Tic]-Ala-{NHOH})    3.33
O=C(N[C@H](C(=O)NO)c1ccccc1)[C@@H]1Cc2ccccc2CN1 (H-[Tic]-[Phg]-{NHOH})    3.41
CC[C@H](C)[C@H](NC(=O)[C@@H]1Cc2ccccc2CN1)C(=O)NO.Cl (H-[Tic]-Ile-{NHOH})    3.17

I = O=C(N[C@@H](Cc1ccc(O)cc1)C(=O)NO)[C@@H]1Cc2ccccc2CN1 (H-[Tic]-Tyr-{NHOH})
II = Cl.O=C(NO)[C@@H]1C[C@@H](O)CN1C(=O)[C@@H]1Cc2ccccc2CN1 (H-[Tic]-[Hyp]-{NHOH})
Record comparison, field pIC50: mark the lower of I and II . To answer, give the label that identifies your chosen option.
I

* * *

- study system: Aminopeptidase N (Sus scrofa, UniProt P15145)
- Sequence (P15145 whole entry): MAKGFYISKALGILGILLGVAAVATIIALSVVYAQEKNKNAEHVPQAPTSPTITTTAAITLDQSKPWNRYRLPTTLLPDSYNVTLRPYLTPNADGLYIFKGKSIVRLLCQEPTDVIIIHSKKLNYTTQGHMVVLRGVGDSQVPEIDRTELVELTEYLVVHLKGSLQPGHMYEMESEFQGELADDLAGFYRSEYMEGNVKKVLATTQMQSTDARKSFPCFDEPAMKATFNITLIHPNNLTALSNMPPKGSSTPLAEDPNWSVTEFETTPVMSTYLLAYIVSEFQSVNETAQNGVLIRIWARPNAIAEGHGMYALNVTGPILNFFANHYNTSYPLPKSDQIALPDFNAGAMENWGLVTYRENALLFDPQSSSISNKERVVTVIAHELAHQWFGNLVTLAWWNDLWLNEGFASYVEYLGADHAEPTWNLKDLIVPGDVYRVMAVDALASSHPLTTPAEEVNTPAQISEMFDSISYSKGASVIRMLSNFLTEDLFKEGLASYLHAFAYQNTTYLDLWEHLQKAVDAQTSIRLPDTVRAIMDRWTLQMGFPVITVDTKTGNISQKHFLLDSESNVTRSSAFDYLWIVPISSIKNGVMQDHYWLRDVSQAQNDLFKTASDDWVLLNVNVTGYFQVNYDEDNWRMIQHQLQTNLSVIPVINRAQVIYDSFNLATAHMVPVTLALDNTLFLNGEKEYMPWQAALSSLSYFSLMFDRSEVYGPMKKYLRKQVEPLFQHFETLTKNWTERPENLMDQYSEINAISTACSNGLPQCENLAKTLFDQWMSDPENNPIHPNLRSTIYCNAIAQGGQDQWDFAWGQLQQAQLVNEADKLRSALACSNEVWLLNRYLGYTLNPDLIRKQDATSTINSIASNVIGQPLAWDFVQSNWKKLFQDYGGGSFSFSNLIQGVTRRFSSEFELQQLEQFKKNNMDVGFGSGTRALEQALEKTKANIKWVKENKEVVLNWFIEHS
- assay text: Inhibition of pig kidney microsome aminopeptidase N using L-Leu-p-nitroanilide substrate
- run conditions: read-out: IC50
Where a SMILES comes first, the peptide text is derived from it. [ ]: non-standard residue; d: D form. The star is where a group is joined. Tic = O=C(O)[C@@H]1Cc2ccccc2CN1; NHOH = ON*
property measured: IC50 (µM)

Below are worked cases with known answers.
CC(C)C[C@H](NC(=O)[C@@H]1Cc2ccccc2CN1)C(=O)NO (H-[Tic]-Leu-{NHOH})    27.5
O=C(N[C@@H](Cc1ccccc1)C(=O)NO)[C@@H]1Cc2ccccc2CN1 (H-[Tic]-Phe-{NHOH})    12.8
O=C(CCCNC(=O)[C@@H]1Cc2ccccc2CN1)NO    44.5
CC(C)[C@H](NC(=O)[C@@H]1Cc2ccccc2CN1)C(=O)NO (H-[Tic]-Val-{NHOH})    36.6
O=C(CCNC(=O)[C@@H]1Cc2ccccc2CN1)NO    37.1

a = Cl.O=C(N[C@@H](Cc1cc2ccccc2[nH]1)C(=O)NO)[C@@H]1Cc2ccccc2CN1
b = Cl.O=C(CN1C(=O)CC[C@H](NC(=O)[C@@H]2Cc3ccccc3CN2)C1=O)NO
c = O=C(N[C@@H](Cc1ccc(O)cc1)C(=O)NO)[C@@H]1Cc2ccccc2CN1 (H-[Tic]-Tyr-{NHOH})
// sort entries: IC50, high to low I'd appreciate it if you listed the labels in the requested order.
a, b, c
(a: 43.4 µM, b: 20.4 µM, c: 9.39 µM)
